tested on: RAW-Dual; experiment: NF-kB SEAP reporter activity, fold change vs agonist alone; higher = enhanced NF-kB activity; settings: library stock concentration (final ~1000-fold dilution): 10 mM; cytotoxicity flag (confluency mask): not cytotoxic; agonist: Imiquimod (TLR7) […]
Whole data set: some 2,900 compounds, median “NF-kB SEAP reporter activity, fold change vs agonist alone” near 0.99, cut for the highest 2% near 2.6. What follows is part of a selection rich in the highest values, with near analogues and random picks from the rest.
OBSERVED_PROPERTY: NF-kB SEAP reporter activity
Form: value (number only, do not type unit).

## Input Name the reported NF-kB SEAP reporter activity value associated with the molecule O=C1c2cccc3c2C(CCC3)CN1C1CN2CCC1CC2 (stereo unspecified)
## Output 0.886

## Input Name the reported NF-kB SEAP reporter activity value associated with the molecule CC(Nc1cc(F)cc(F)c1)c1cc(C(=O)N(C)C)cc2c(=O)cc(N3CCOCC3)oc12 (stereo unspecified)
## Output 0.569

## Input Name the reported NF-kB SEAP reporter activity value associated with the molecule C/C(=N\NC(=O)c1cccc(S(=O)(=O)N2CCOCC2)c1)c1cc(Cl)ccc1O
## Output 1.53

## Input Name the reported NF-kB SEAP reporter activity value associated with the molecule COc1cc(OC)cc(-c2cc3cnc(N)nc3nc2NC(=O)NC(C)(C)C)c1
## Output 0.989

## Input Name the reported NF-kB SEAP reporter activity value associated with the molecule O=C(N/N=C/c1ccc(O)c(O)c1)c1cc2ccccc2cc1O
## Output 0.605

## Input Name the reported NF-kB SEAP reporter activity value associated with the molecule Cc1nccn1CC1CCc2c(c3ccccc3n2C)C1=O.Cl (stereo unspecified)
## Output 0.917

## Input Name the reported NF-kB SEAP reporter activity value associated with the molecule CCCS(=O)c1ccc2nc(NC(=O)OC)[nH]c2c1 (stereo unspecified)
## Output 1.04

## Input Name the reported NF-kB SEAP reporter activity value associated with the molecule CCN(CC)CCNC(=O)c1ccc(N)cc1.Cl
## Output 0.94

## Input Name the reported NF-kB SEAP reporter activity value associated with the molecule CC(C(=O)O)c1ccc(C(=O)c2cccs2)cc1 (stereo unspecified)
## Output 0.601

## Input Name the reported NF-kB SEAP reporter activity value associated with the molecule O=C(NO)c1cccc(C(=O)NCCc2ccccc2)c1
## Output 1.05

## Input Name the reported NF-kB SEAP reporter activity value associated with the molecule COc1cc2c(cc1OC)CN(C(=O)/C=C/c1c(-c3ccccc3)n(C)c3ncccc13)CC2.Cl
## Output 1

----------
tested on: RAW-Dual; test: NF-kB SEAP reporter activity, fold change vs agonist alone; cytotoxicity flag (confluency mask): not cytotoxic; higher = enhanced NF-kB activity; conditions: agonist: Pam2CSK4 (TLR2/6) 0.1 ug/mL
In all, about 2,900 compounds were measured (“NF-kB SEAP reporter activity, fold change vs agonist alone”: median about 0.99, highest 2% from about 2.6 on). Shown is part of a subset that was picked to be rich in the highest values.
OBSERVED_PROPERTY: NF-kB SEAP reporter activity
Form: value (number only, do not type unit).

## Input For RAW-Dual, provide NF-kB SEAP reporter activity of CS(=O)c1ccc(-c2nc(-c3ccc(F)cc3)c(-c3ccncc3)[nH]2)cc1 (stereo not given) (library stock concentration (final ~1000-fold dilution): 10 mM) please.
## Output 0.716

## Input For RAW-Dual, provide NF-kB SEAP reporter activity of CCC1(O)C(=O)OCc2c1cc1n(c2=O)Cc2cc3cc(O)ccc3nc2-1 (stereo not given) (library stock concentration (final ~1000-fold dilution): 10 mM) please.
## Output 1.07

## Input For RAW-Dual, provide NF-kB SEAP reporter activity of COC1/C=C/OC2(C)Oc3c(C)c(O)c4c(O)c(c(/C=N/N5CCN(C6CCCC6)CC5)c(O)c4c3C2=O)NC(=O)/C(C)=C/C=C/C(C)C(O)C(C)C(O)C(C)C(OC(C)=O)C1C (stereo not given) (library stock concentration (final ~1000-fold dilution): 10 mM) please.
## Output 0.643

## Input For RAW-Dual, provide NF-kB SEAP reporter activity of COc1ccc2cc(-c3[nH]c(-c4ccc(S(C)=O)cc4)nc3-c3ccncc3)ccc2c1 (stereo not given) (library stock concentration (final ~1000-fold dilution): 10 mM) please.
## Output 1.74

## Input For RAW-Dual, provide NF-kB SEAP reporter activity of CCC1(O)C(=O)OCc2c1cc1n(c2=O)Cc2cc3c(CN(C)C)c(O)ccc3nc2-1 (stereo not given) (library stock concentration (final ~1000-fold dilution): 10 mM) please.
## Output 0.849

----------
system: RAW-Dual; assay: NF-kB SEAP reporter activity, fold change vs agonist alone; cytotoxicity flag (confluency mask): not cytotoxic; higher = enhanced NF-kB activity; conditions: agonist: Pam2CSK4 (TLR2/6) 0.1 ug/mL
Whole data set: some 2,900 compounds, median “NF-kB SEAP reporter activity, fold change vs agonist alone” near 0.99, cut for the highest 2% near 2.6. This excerpt belongs to a sample that is enriched for the highest values.
Assign NF-kB SEAP reporter activity to each entry below.
Form: value (number only, do not type unit).

## Input Name the reported NF-kB SEAP reporter activity value associated with the compound Cc1nc(N)sc1-c1ccnc(Nc2ccc(N3CCOCC3)cc2)n1 (library stock concentration (final ~1000-fold dilution): 10 mM)
## Output 0.401

## Input Name the reported NF-kB SEAP reporter activity value associated with the compound CC(C)(O)CNc1nc(Nc2ccnc(C(F)(F)F)c2)nc(-c2cccc(C(F)(F)F)n2)n1 (library stock concentration (final ~1000-fold dilution): 10 mM)
## Output 1.09

## Input Name the reported NF-kB SEAP reporter activity value associated with the compound COc1cc(N2CCN(C)CC2)ccc1Nc1nccc(-c2cn(C)c3cnccc23)n1 (library stock concentration (final ~1000-fold dilution): 10 mM)
## Output 1.14

----------
system: RAW-Dual; experiment: NF-kB SEAP reporter activity, fold change vs agonist alone; cytotoxicity flag (confluency mask): not cytotoxic; higher = enhanced NF-kB activity; conditions: agonist: LPS (TLR4) 0.1 ug/mL
Over roughly 2,900 compounds, “NF-kB SEAP reporter activity, fold change vs agonist alone” has its median near 0.99; the highest 2% begin near 2.6. The sample as a whole holds a higher share of the highest values than the screen did.
OBSERVED_PROPERTY: NF-kB SEAP reporter activity
Form: value (number only, do not type unit).

## Input For RAW-Dual, provide NF-kB SEAP reporter activity of Cc1cccc(C)c1OCC(=O)NC(Cc1ccccc1)C(O)CC(Cc1ccccc1)NC(=O)C(C(C)C)N1CCCNC1=O (configuration not stated) (library stock concentration (final ~1000-fold dilution): 10 mM) please.
## Output 1.37

## Input For RAW-Dual, provide NF-kB SEAP reporter activity of COC(=O)NC(C(=O)NC(Cc1ccccc1)C(O)CN(Cc1ccc(-c2ccccn2)cc1)NC(=O)C(NC(=O)OC)C(C)(C)C)C(C)(C)C (configuration not stated) (library stock concentration (final ~1000-fold dilution): 10 mM) please.
## Output 1.03

## Input For RAW-Dual, provide NF-kB SEAP reporter activity of CCOC(=O)Nc1ccc(NCc2ccc(F)cc2)nc1N.O=C(O)/C=C/C(=O)O (library stock concentration (final ~1000-fold dilution): 10 mM) please.
## Output 1.03

## Input For RAW-Dual, provide NF-kB SEAP reporter activity of CCCC(NC(=O)C1C2CCCC2CN1C(=O)C(NC(=O)C(NC(=O)c1cnccn1)C1CCCCC1)C(C)(C)C)C(=O)C(=O)NC1CC1 (configuration not stated) (library stock concentration (final ~1000-fold dilution): 10 mM) please.
## Output 1.3

## Input For RAW-Dual, provide NF-kB SEAP reporter activity of CC(C)Nc1cc(-c2c[nH]c(C(=O)NC(CO)c3cccc(Cl)c3)c2)c(Cl)cn1 (configuration not stated) (library stock concentration (final ~1000-fold dilution): 10 mM) please.
## Output 0.201

## Input For RAW-Dual, provide NF-kB SEAP reporter activity of Cc1cc2c(C(=O)NCC(C)c3ccccc3)c(O)c(O)cc2c(O)c1-c1c(C)cc2c(C(=O)NCC(C)c3ccccc3)c(O)c(O)cc2c1O (configuration not stated) (library stock concentration (final ~1000-fold dilution): 10 mM) please.
## Output 4.28

## Input For RAW-Dual, provide NF-kB SEAP reporter activity of O=c1cc(-c2ccccc2)oc2c1ccc1ccccc12 (library stock concentration (final ~1000-fold dilution): 10 mM) please.
## Output 0.691

## Input For RAW-Dual, provide NF-kB SEAP reporter activity of CCCCCCCCCCCCCCCCCC(=O)O (library stock concentration (final ~1000-fold dilution): 10 mM) please.
## Output 0.849

## Input For RAW-Dual, provide NF-kB SEAP reporter activity of CCOC(=O)C(CCc1ccccc1)NC(C)C(=O)N1Cc2ccccc2CC1C(=O)O.Cl (configuration not stated) (library stock concentration (final ~1000-fold dilution): 10 mM) please.
## Output 0.94

## Input For RAW-Dual, provide NF-kB SEAP reporter activity of COc1cc2ncnc(Nc3ccc(F)c(Cl)c3)c2cc1OCCCN1CCOCC1.Cl (library stock concentration (final ~1000-fold dilution): 10 mM) please.
## Output 1.23

## Input For RAW-Dual, provide NF-kB SEAP reporter activity of CCc1ccc(NC(=O)Nc2ccccc2)cc1 (library stock concentration (final ~1000-fold dilution): 10 mM) please.
## Output 1.12

## Input For RAW-Dual, provide NF-kB SEAP reporter activity of COc1ccccc1N1CCN(CCCNc2cc(=O)n(C)c(=O)n2C)CC1.Cl (library stock concentration (final ~1000-fold dilution): 10 mM) please.
## Output 1.02

## Input For RAW-Dual, provide NF-kB SEAP reporter activity of O=C(CCCCCCCC(=O)NCCO)NCCO (library stock concentration (final ~1000-fold dilution): 10 mM) please.
## Output 1.2

## Input For RAW-Dual, provide NF-kB SEAP reporter activity of CCCC(=O)Nc1cccc(NC(=O)c2ccccc2Br)c1 (library stock concentration (final ~1000-fold dilution): 10 mM) please.
## Output 0.939

## Input For RAW-Dual, provide NF-kB SEAP reporter activity of NC1(C(=O)NC(CCO)c2ccc(Cl)cc2)CCN(c2ncnc3[nH]ccc23)CC1 (configuration not stated) (library stock concentration (final ~1000-fold dilution): 10 mM) please.
## Output 0.9

## Input For RAW-Dual, provide NF-kB SEAP reporter activity of COc1cc2c(cc1NS(=O)(=O)c1ccc(Br)cc1C)n(C)c(=O)n2C (library stock concentration (final ~1000-fold dilution): 10 mM) please.
## Output 1.73

## Input For RAW-Dual, provide NF-kB SEAP reporter activity of CC(C)CC(NC(=O)C(Cc1ccccc1)CC(O)C(Cc1ccccc1)NC(=O)OC(C)(C)C)C(=O)NC(Cc1ccccc1)C(N)=O (configuration not stated) (library stock concentration (final ~1000-fold dilution): 10 mM) please.
## Output 1.25

## Input For RAW-Dual, provide NF-kB SEAP reporter activity of CCC1OC(=O)C(C)(F)C(=O)C(C)C(OC2OC(C)CC(N(C)C)C2O)C(C)(OC)CC(C)C(=O)C(C)C2N(CCCCn3cc(-c4cccc(N)c4)nn3)C(=O)OC12C (configuration not stated) (library stock concentration (final ~1000-fold dilution): 10 mM) please.
## Output 1.47

## Input For RAW-Dual, provide NF-kB SEAP reporter activity of COc1ccccc1S(=O)(=O)Nc1ccc2c(c1)CN(C)C(=O)N2 (library stock concentration (final ~1000-fold dilution): 10 mM) please.
## Output 3.81

## Input For RAW-Dual, provide NF-kB SEAP reporter activity of O=C1c2ccc(O)cc2C(=O)c2ccc(O)cc21 (library stock concentration (final ~1000-fold dilution): 10 mM) please.
## Output 1.38

## Input For RAW-Dual, provide NF-kB SEAP reporter activity of O=[N+]([O-])c1ccc(Nc2ccccc2-c2ccccc2)c2nonc12 (library stock concentration (final ~1000-fold dilution): 10 mM) please.
## Output 2.02

## Input For RAW-Dual, provide NF-kB SEAP reporter activity of O=C(CCCCCCC(=O)NO)NO (library stock concentration (final ~1000-fold dilution): 10 mM) please.
## Output 3.77

The measurements presented in this section are drawn from the supplement of paper PMC10037445.
